- System: T1, 12-GST fusion protein (GST fused to rat OGFr, all 580 amino acids, from clone #12) (rat, UniProt Q9QXY4 1-580)
- T1 construct: The order GST then OGFr follows the pGEX-3X vector; also called purified fusion protein from the rat OGFr cDNA clone #12; not shown: glutathione-S-transferase (GST) of the pGEX-3X expression vector
- T1 sequence: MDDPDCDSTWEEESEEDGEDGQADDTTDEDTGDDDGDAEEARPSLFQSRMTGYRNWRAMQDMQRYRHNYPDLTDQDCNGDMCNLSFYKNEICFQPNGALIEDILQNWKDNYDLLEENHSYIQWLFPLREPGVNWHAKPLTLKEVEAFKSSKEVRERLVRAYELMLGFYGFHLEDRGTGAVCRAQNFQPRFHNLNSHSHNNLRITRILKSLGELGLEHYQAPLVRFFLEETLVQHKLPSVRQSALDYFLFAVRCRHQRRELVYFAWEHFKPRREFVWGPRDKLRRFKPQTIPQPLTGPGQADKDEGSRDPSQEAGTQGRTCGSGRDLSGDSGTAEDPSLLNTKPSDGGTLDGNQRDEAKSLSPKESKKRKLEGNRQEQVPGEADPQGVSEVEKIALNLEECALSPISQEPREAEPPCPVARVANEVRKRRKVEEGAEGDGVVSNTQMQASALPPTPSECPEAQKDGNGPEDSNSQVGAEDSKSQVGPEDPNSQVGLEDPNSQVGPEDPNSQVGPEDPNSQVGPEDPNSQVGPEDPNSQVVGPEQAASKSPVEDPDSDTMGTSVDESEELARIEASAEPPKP
- Experiment: [3H]-[Met5]-enkephalin saturation binding, filter assay, purified 12-GST fusion protein, 22 C
pKd: −log10 of the molar value. Ends that are not written are not given here.
Measurement Type: pKd

Binder	Meas Value
YGGFM (peptide, UniProt P01210 100-104, looked up, also: [3H] label on radioligand form, domain: [Met^5]-enkephalin; only the pentapeptide stood in the assay; also called OGF; [^3H]-[Met^5]-enkephalin) [[Met^5]-enkephalin (opioid growth factor)]	8.55
